Experimental protocol: APR_HepG2_NuclearSize_24hr: Apredica 24-hour HepG2 Assay for Nuclear Size (AID 2282907)
Condition: high-content imaging, actives raise or lower the signal
The source made the active and inactive calls. The calls were made as follows: active = hit-call score of the fitted dose curve at least 0.9, where 1 is the maximum; inactive = score below 0.9.
Classes used: 1.0 = active, 0.0 = inactive

>  <Compound>
Clc1ccccc1Cl

>  <Label>
0.0

$$$$
>  <Compound>
CCCCCCCCOC(=O)c1ccc(C(=O)OCCCCCCCC)c(C(=O)OCCCCCCCC)c1

>  <Label>
0.0

$$$$
>  <Compound>
CCN(CC)CCO

>  <Label>
0.0

$$$$
>  <Compound>
O=[N+]([O-])C(Br)(CO)CO

>  <Label>
0.0

$$$$
>  <Compound>
[O-][Cl+]O

>  <Label>
0.0

$$$$
>  <Compound>
Oc1ccc2ccc3cccc4ccc1c2c34

>  <Label>
0.0

$$$$
>  <Compound>
CCOC(=O)[C@]1(c2ccccc2)Oc2ccccc2[C@@H]1N

>  <Label>
0.0

$$$$
>  <Compound>
Cc1ccc(N)cc1

>  <Label>
0.0

$$$$
>  <Compound>
c1ccc2c(c1)oc1ccccc12

>  <Label>
0.0

$$$$
>  <Compound>
CN(C)c1ccccc1

>  <Label>
0.0

$$$$
>  <Compound>
CCN(CC)N=O

>  <Label>
0.0

$$$$
>  <Compound>
c1ccc(C2CO2)cc1 (stereo not drawn)

>  <Label>
0.0

$$$$
>  <Compound>
CCOc1cccc(C2(N3CCN(c4ccccc4)CC3)CCC(C)CC2)c1 (stereo not drawn)

>  <Label>
0.0

$$$$
>  <Compound>
COC(=O)Nc1nc2ccccc2[nH]1

>  <Label>
0.0

$$$$
>  <Compound>
CNC(=O)Oc1cccc2c1OC(C)(C)C2

>  <Label>
0.0

$$$$
>  <Compound>
Cc1cccc(N)c1N

>  <Label>
0.0

$$$$
>  <Compound>
O=C(O)C1C2CCC(O2)C1C(=O)O (stereo not drawn)

>  <Label>
0.0

$$$$
>  <Compound>
CCNS(=O)(=O)C(F)(F)C(F)(F)C(F)(F)C(F)(F)C(F)(F)C(F)(F)C(F)(F)C(F)(F)F

>  <Label>
0.0

$$$$
>  <Compound>
[Cl-].[Cl-].[Hg+2]

>  <Label>
1.0

$$$$
>  <Compound>
N#CC(Br)Br

>  <Label>
0.0

$$$$
>  <Compound>
ClC1=C(Cl)[C@]2(Cl)[C@H]3[C@H]([C@@H]4C=C[C@H]3C4)[C@@]1(Cl)C2(Cl)Cl

>  <Label>
1.0

$$$$
>  <Compound>
O=C(Nc1ccccc1)c1ccccc1I

>  <Label>
0.0

$$$$
>  <Compound>
COC(=O)c1ccccc1N

>  <Label>
0.0

$$$$
